The reported measurements were obtained from patent US20230002375A1.

assay_name: Human microsomal stability assay
Assay type: in vitro ADME
protocol_conditions: human liver microsomes, 1 μM test compound, 0.5 mg/mL protein, 37° C.; low <7.0, medium 7.0-16.2, high 16.2-23.2 mL/min/kg
value_kind: CL(h) (mL/min/kg)

{"molecule": "C[C@@H]1CN(c2ccc(C#N)c3ncccc23)C[C@@H]2Cc3cc(N[C@@H]4CNC[C@@H]4F)ccc3CN21 [Example 6]", "reported_result": 6.8}
{"molecule": "C[C@@H]1CN(c2ccc(C#N)c3ncccc23)C[C@@H]2Cc3cc(N4C[C@@H](F)[C@@H](N)C4)ccc3CN21 [Example 8]", "reported_result": 9.6}
{"molecule": "C[C@@H]1CN(c2ccc(C#N)c3ncccc23)C[C@@H]2Cc3cc(N4CCN(C(=O)[C@]5(C)CCCN5)CC4)ccc3CN21 [Example 14]", "reported_result": 8.7}
{"molecule": "CO[C@H]1CN(c2ccc3c(c2)C[C@H]2CN(c4ccc(C#N)c5ncccc45)C[C@@H](C)N2C3)C[C@H]1N [Example 9]", "reported_result": 8.8}
{"molecule": "C[C@@H]1CN(c2ccc(C#N)c3ncccc23)C[C@@H]2Cc3cc(N4CC(N)CC4=O)ccc3CN21 (stereo partly shown) [Example 16]", "reported_result": 6.8}
{"molecule": "C[C@@H]1CN(c2ccc(C#N)c3ncccc23)C[C@@H]2Cc3cc(N4CCN(C(=O)C(C)(C)N)CC4)ccc3CN21 [Example 13]", "reported_result": 7.6}
{"molecule": "C[C@@H]1CN(c2ccc(C#N)c3ncccc23)C[C@@H]2Cc3cc(N4CC5NCCOC5C4)ccc3CN21 (stereo in doubt) [Example 10]", "reported_result": 9.3}
